target: H1 receptor (Mus musculus); construct: from tissue; host or cells: mouse brain homogenate after intraperitoneal dosing; assay: Test on migration into the brain (ex vivo [^3 H]mepyramine binding in mouse brain after intraperitoneal administration); design: species or system mice; details: brain, ip, BPindex = IC50 (mg/kg)/dissociation constant for H1 receptors (nM), read-out: cerebral migration index, BP index
Sequence (P70174 whole entry): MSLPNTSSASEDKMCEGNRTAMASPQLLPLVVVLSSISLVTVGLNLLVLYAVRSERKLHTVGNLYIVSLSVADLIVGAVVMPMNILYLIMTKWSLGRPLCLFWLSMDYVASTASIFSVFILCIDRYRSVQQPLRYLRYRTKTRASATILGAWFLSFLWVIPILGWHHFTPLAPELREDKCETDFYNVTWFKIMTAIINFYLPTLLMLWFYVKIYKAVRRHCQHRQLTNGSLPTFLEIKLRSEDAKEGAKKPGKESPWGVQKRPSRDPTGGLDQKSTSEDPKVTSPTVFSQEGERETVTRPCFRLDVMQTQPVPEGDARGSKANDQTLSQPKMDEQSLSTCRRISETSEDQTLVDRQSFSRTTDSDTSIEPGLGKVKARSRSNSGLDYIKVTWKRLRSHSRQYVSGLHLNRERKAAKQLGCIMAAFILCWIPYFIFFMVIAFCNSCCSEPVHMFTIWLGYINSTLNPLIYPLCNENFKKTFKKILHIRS
property.name: selectivity ratio at 1 h
Kindly provide the number alone.

Entry `Cc1ccc(OCCN2CCC(=Cc3ccc4ccccc4n3)CC2)c2ccc(=O)[nH]c12` ; assay system H1 receptor (Mus musculus); selectivity ratio at 1 h recorded at 930

---

molecular target: histamine-induced contraction of guinea pig ileum (Cavia porcellus, UniProt P31389); assay: Antihistaminic action (in vitro test), isotonic contraction of isolated ileum in response to histamine; conditions: histamine 10^-8 to 10^-4 M, 30 min after addition of test compound, read-out: Anti-histaminic action pA2 (converted)
Sequence (P31389 whole entry): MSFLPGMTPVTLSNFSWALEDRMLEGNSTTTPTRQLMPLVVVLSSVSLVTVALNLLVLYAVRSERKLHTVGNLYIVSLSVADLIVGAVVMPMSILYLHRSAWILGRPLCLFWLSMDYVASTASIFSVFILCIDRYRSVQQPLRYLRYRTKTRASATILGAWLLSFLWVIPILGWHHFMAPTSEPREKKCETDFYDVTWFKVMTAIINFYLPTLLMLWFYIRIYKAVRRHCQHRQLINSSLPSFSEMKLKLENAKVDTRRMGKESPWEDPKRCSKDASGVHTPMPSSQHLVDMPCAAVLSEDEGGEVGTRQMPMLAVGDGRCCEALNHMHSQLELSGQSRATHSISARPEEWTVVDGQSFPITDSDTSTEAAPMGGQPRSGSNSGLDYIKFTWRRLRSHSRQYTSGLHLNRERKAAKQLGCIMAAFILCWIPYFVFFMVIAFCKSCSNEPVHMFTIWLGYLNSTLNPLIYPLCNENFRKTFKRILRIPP
Structures can show the parent of a compound that is named as a salt.
property.name: log10 of Kb (log10 of the value in nM)
// do not treat as linear: log10 of Kb, unit nM

Cc1ccc(OCCCN2CCC(Cc3ccc4ccccc4n3)CC2)c2ccc(=O)[nH]c12 [Example 26] = -0.79
C(=C1CCN(CCCOc2ccc3c(c2)CCCc2nnnn2-3)CC1)c1ccc2ccccc2n1 [Example 14] = -1.28
Cc1ccc(OCCN2CCC(Cc3ccc4ccccc4n3)CC2)c2ccc(=O)[nH]c12 [Example 25] = -0.33
O=C1CCCc2cc(OCCCN3CCC(=Cc4ccc5ccccc5n4)CC3)ccc2N1 [Example 12, oxalate] = -0.75
Cc1ccc(OCCCN2CCC(=Cc3ccc4ccccc4n3)CC2)c2c1NC(=O)CC2 [Example 3] = -0.85

The reported value for Cc1ccc(OCCN2CCC(Cc3ccc4ccccc4n3)CC2)c2c1NC(=O)CC2 [Example 17] in terms of log10 of Kb is -0.78

The reported value for O=C1NCCCc2cc(OCCCN3CCC(=Cc4ccc5ccccc5n4)CC3)ccc21 [Example 13, oxalate] in terms of log10 of Kb is -0.76

The reported value for Cc1ccc(OCCCN2CCC(Cc3ccc4ccccc4n3)CC2)c2c1NC(=O)C2(C)C [Example 15] in terms of log10 of Kb is -0.49

The reported value for Cc1ccc(OCCN2CCC(=Cc3ccc4ccccc4n3)CC2)c2ccc(=O)[nH]c12 [Example 10] in terms of log10 of Kb is -1.08

The reported value for O=C1CCc2cccc(OCCCN3CCC(=Cc4ccc5ccccc5n4)CC3)c2N1 [Example 8, oxalate] in terms of log10 of Kb is -0.65

The reported value for O=C1CCc2ccc(OCCCN3CCC(=Cc4ccc5ccccc5n4)CC3)cc2N1 [Example 9, oxalate] in terms of log10 of Kb is 0.47

The reported value for Cc1ccc(OCCCN2CCC(=Cc3ccc4ccccc4n3)CC2)c2ccc(=O)[nH]c12 [Example 11] in terms of log10 of Kb is -0.66

---

system: leukotriene D4 (LTD4)-induced contraction of guinea pig ileum; test: Antileukotriene action (in vitro test), isotonic contraction of isolated ileum induced with LTD4; settings: Cavia porcellus; contraction with 10^-8 M LTD4
property.name: IC50 (µM)
Please give a number only; it is taken to be in µM.

The reported value for `Cc1ccc(OCCN2CCC(Cc3ccc4ccccc4n3)CC2)c2ccc(=O)[nH]c12` in terms of IC50 is 3.4

---

Kd, H1 receptor (Cavia porcellus): measured values
Structures can show the parent of a compound that is named as a salt.
Please give a number only; it is taken to be in nM.

Entry O=C1NCCCc2cc(OCCCN3CCC(=Cc4ccc5ccccc5n4)CC3)ccc21 [Example 13, oxalate] ; assay system H1 receptor (Cavia porcellus); Kd recorded at 1.15

Entry `O=C1CCc2cc(OCCN3CCC(=Cc4ccc5ccccc5n4)CC3)ccc2N1` ; assay system H1 receptor (Cavia porcellus); Kd recorded at 164

Entry O=C1CCCc2cc(OCCCN3CCC(=Cc4ccc5ccccc5n4)CC3)ccc2N1 [Example 12, oxalate] ; assay system H1 receptor (Cavia porcellus); Kd recorded at 0.0238

Entry `Cc1ccc(OCCN2CCC(=Cc3ccc4ccccc4n3)CC2)c2ccc(=O)[nH]c12` ; assay system H1 receptor (Cavia porcellus); Kd recorded at 0.0351
